READOUT LABEL: melting point (°C)
The reply should be a number in °C, with the unit left off.

[
  {
    "MOL": "O=P(Cc1ccc(O)cc1)(c1ccccc1)c1ccccc1",
    "UNIT TAG": "°C",
    "melting point": 125
  }
]

// moving on: another record for melting point
melting point measured on Cc1cccc(C)c1CNc1cc(Br)cc2c1nc(C)n2O = 277

---

READOUT LABEL: melting point

[
  {
    "MOLECULE": "O=C(C=Cc1cccc(S(=O)(=O)NCc2ccco2)c1)NO",
    "REPORTED RESULT": "165 °C"
  },
  {
    "MOLECULE": "CCCC1CC(=O)c2c(NC(=O)C(=O)O)ccc(C)c21 (stereo not given)",
    "REPORTED RESULT": "157 to 158 °C"
  },
  {
    "MOLECULE": "CCC(=O)NN=C(c1ccc(Cl)cc1)c1ccc(NS(=O)(=O)c2ccccc2)cc1",
    "REPORTED RESULT": "238 to 240 °C"
  },
  {
    "MOLECULE": "COc1ccnc(CSc2nc3ccc(F)cc3[nH]2)c1C",
    "REPORTED RESULT": "128 °C"
  },
  {
    "MOLECULE": "O=C1C(CCO)Oc2cc([N+](=O)[O-])ccc2N1Cc1ccccc1Cl (stereo not given)",
    "REPORTED RESULT": "106 to 108 °C"
  },
  {
    "MOLECULE": "COc1ccc(C(CSc2ccccc2N)C(=O)O)cc1OC (stereo not given)",
    "REPORTED RESULT": "162 °C"
  }
]

melting point measured on CCc1cc(Br)cc2[nH]c(=O)oc(=O)c12 = 208 to 210 °C

melting point measured on CC(C)(C)C1=NN(c2ccc(S(=O)(=O)O)cc2)C(c2ccc(Cl)cc2)C1 (stereo not given) = 92.5 °C

melting point measured on Cc1ccc(-c2coc3c(C)c(C)cc(C)c23)cc1 = 112 to 113 °C

melting point measured on Cc1cc(C(C)N(O)C(N)=O)c(C)o1 (stereo not given) = 145 to 146 °C

---

# melting point per entry

Here's what some known entries look like.
[
  {
    "COMPOUND": "CCN1C(=O)Cc2cc(OC(=O)CCl)ccc21",
    "melting point": "53 to 57 °C"
  },
  {
    "COMPOUND": "N#Cc1ccccc1C1CNC([N+](=O)[O-])CCN1 (stereo not given)",
    "melting point": "101 °C"
  },
  {
    "COMPOUND": "CC1(C)OCCc2nc(-c3ccccc3)sc21",
    "melting point": "65 to 66 °C"
  },
  {
    "COMPOUND": "C#Cc1cccc(Nc2ncnc3[nH]cc(-c4cccs4)c23)c1",
    "melting point": "230 to 232 °C"
  },
  {
    "COMPOUND": "CCn1nc(C(=O)NC2CN(C)CCN(Cc3cccc(C)c3)C2)c2ccccc21 (stereo not given)",
    "melting point": "135 to 137 °C"
  },
  {
    "COMPOUND": "COc1cc2cc(C3=CCN(C)CC3)oc2cc1OC",
    "melting point": "73 to 75 °C"
  },
  {
    "COMPOUND": "Cc1cc(Cl)c2c(c1)C=C(C(=O)O)C(C(F)(F)F)O2 (stereo not given)",
    "melting point": "226 to 227 °C"
  },
  {
    "COMPOUND": "CCCCNC(=O)[C@H](C)C[C@H](O)[C@H](CC1CCCCC1)NC(=O)[C@H](Cc1cscn1)NC(=O)[C@@H](CC(=O)N1CCOCC1)Cc1ccccc1",
    "melting point": "162 to 163 °C"
  },
  {
    "COMPOUND": "NC(Cc1cc(O)c2c(c1)C(=O)c1cccc(O)c1C2=O)C(=O)O (stereo not given)",
    "melting point": "210 to 212 °C"
  }
]

// moving on: another record for melting point
melting point measured on CN1CCP(=O)(c2ccccc2)CC1 = 115 to 116 °C

---

# melting point per entry

Here's what some known entries look like.
[
  {
    "MOLECULE": "c1cc2c3c(c[nH]c3c1)CC1NCCOC21 (stereo not given)",
    "melting point": "175 to 177 °C"
  },
  {
    "MOLECULE": "CCOC(=O)CCCCCCCn1c(=O)[nH]c2ccccc2c1=O",
    "melting point": "88 to 89 °C"
  },
  {
    "MOLECULE": "CC(C)(C)CC(C)(C)c1cc(-n2nc3ccc(Sc4ccccc4)cc3n2)c(O)c(C(C)(C)c2ccccc2)c1",
    "melting point": "124 to 125 °C"
  }
]

melting point measured on Cc1nc2ccc3c(c2o1)OC(CN1CC=C(c2c[nH]c4ccc(Cl)cc24)CC1)CO3 (stereo not given) = 144 to 145 °C

melting point measured on Cn1ccn(CC#CCn2ccnc2)c1=O = 106 to 109 °C

melting point measured on CCOC(=O)c1nc(NC)sc1-c1nc2ccc(C)cn2c1C = 225 to 227 °C

---

READOUT LABEL: melting point

melting point measured on Cc1ccc(COC(=O)CCC2CCC(=O)N2)cc1 (stereo unspecified) = 71 to 72 °C

---

# melting point per entry

Here's what some known entries look like.
[
  {
    "COMPOUND": "COC(=O)CCCCNC(=O)C(COS(C)(=O)=O)NS(=O)(=O)c1ccc(Cl)cc1 (racemic)",
    "melting point": "95 to 97 °C"
  },
  {
    "COMPOUND": "COc1ccc(S(=O)(=O)Nc2cccc3cn[nH]c23)cc1",
    "melting point": "155 to 156 °C"
  },
  {
    "COMPOUND": "CCN1CC(N(CCN2CCCC2)S(=O)(=O)c2ccc(Nc3nccc(Nc4ccc(F)c(C)c4)n3)cc2)C1",
    "melting point": "195 °C"
  },
  {
    "COMPOUND": "O=C(O)C=C(c1ccccc1)c1ccc([N+](=O)[O-])cc1",
    "melting point": "188 to 189 °C"
  }
]

melting point measured on O=C(O)c1sc(-c2ccc(C(F)(F)F)cc2)nc1C(F)(F)F = 177 to 179 °C

melting point measured on COc1cc2c(cc1O)C(Cc1cc(Br)c(OC)cc1[N+](=O)[O-])N(C)CC2 (stereo not given) = 146 °C

melting point measured on Cc1cccc2c(=O)[nH]c(N3CCN(C)C(CO)C3)cc12 (stereo not given) = 184 to 186 °C

melting point measured on O=C(O)CNC(=O)CSCCCCc1ccc2c(c1)OCO2 = 95 to 96 °C

melting point measured on ON=C1CCOc2cc(Cl)c(Cl)cc21 = 192 to 193 °C

melting point measured on CCn1cc(C(=O)NC2CCCCC2)c(=O)c2cnc(N3CCCC3)nc21 = 265 to 267 °C

---

READOUT LABEL: melting point

Here's what some known entries look like.
[
  {
    "COMPOUND": "Cc1ccc(N(C)CCC(C)NCC(O)c2ccc(O)c(C(N)=O)c2)cc1 (stereo not given)",
    "melting point": "123 to 126 °C"
  },
  {
    "COMPOUND": "COC(=O)CC=CC=Cc1ccccc1",
    "melting point": "71 °C"
  },
  {
    "COMPOUND": "COc1cc(COc2nn(-c3ccccc3)cc2/C=C/c2coc(C(C)(C)C)n2)ccc1OCc1nc(-c2ccc(CC(=O)O)cc2)oc1C",
    "melting point": "104 to 106 °C"
  }
]

melting point measured on COc1ccc(N2CCN(C(=O)CC3C=Cc4ccccc43)CC2)cc1 (stereo not given) = 123 to 125 °C

melting point measured on CCC(=O)NCCC1CCc2cc(F)c(O)cc21 (stereo not given) = 93 to 96 °C

---

# melting point per entry

[
  {
    "COMPOUND": "O=C1CC(SSSSC2CC(=O)NC2=O)C(=O)N1 (stereo unspecified)",
    "READOUT LABEL": "melting point",
    "REPORTED RESULT": "108 to 114 °C"
  },
  {
    "COMPOUND": "CC(=O)c1cc(C=O)c(O)cc1O",
    "READOUT LABEL": "melting point",
    "REPORTED RESULT": "134 to 136 °C"
  },
  {
    "COMPOUND": "O=C1CCC(N2C(=O)c3cccc(CNC(=O)c4ccc(C(F)(F)F)c(F)c4)c3C2=O)C(=O)N1 (stereo unspecified)",
    "READOUT LABEL": "melting point",
    "REPORTED RESULT": "165 to 167 °C"
  },
  {
    "COMPOUND": "CCOC(=O)Cc1nc(-c2ccccc2)n(C)n1",
    "READOUT LABEL": "melting point",
    "REPORTED RESULT": "82 to 83 °C"
  },
  {
    "COMPOUND": "FC(F)(F)c1nncn1-c1ccccc1",
    "READOUT LABEL": "melting point",
    "REPORTED RESULT": "80 °C"
  }
]

// moving on: another record for melting point
melting point measured on C#CCCCOc1c(C)cc(-c2nc(C)no2)cc1C = 38 to 40 °C

Data provenance is a melting point compilation (Tetko et al.; mined from patent text by program, amines drawn as free bases though some values may be those of a salt).
